Experiment: ITC binding of naamidine A to ZnCl2
Conditions: ITC with significant amounts of MeOH; reasonable approximation
Property: Kd

Suppose we examine the molecule COc1ccc(Cc2nc(NC3=NC(=O)N(C)C3=O)n(C)c2Cc2ccc(O)cc2)cc1 ; what Kd value has been reported?
~350 nM

----------
Test: in vivo
Parameters: species or system Sprague-Dawley rats
Conditions: female, Sprague-Dawley, rat, iv, 1 mg/kg, MRTINF_obs
Property: MRT inf (h)
One number for each entry, in h.

Suppose we examine the compound COc1ccc(-c2c(Cc3ccccc3)[nH]/c(=N\C(=O)c3ccccc3F)n2C)cc1 ; what MRT inf value has been reported?
2.1

----------
Experiment: in vivo
Set-up: species or system Sprague-Dawley rats
Details: female, Sprague-Dawley, rat
Property: bioavailability

Suppose we examine the molecule COc1ccc(-c2c(Cc3ccccc3)[nH]/c(=N\C(=O)c3ccccc3F)n2C)cc1 [ZNA] ; what bioavailability value has been reported?
~6%

----------
Assay: in vivo
Parameters: species or system Sprague-Dawley rats
Settings: female, Sprague-Dawley, rat
Property: half-life (h)
Give bare numbers, in h.

Suppose we examine the molecule COc1ccc(-c2c(Cc3ccccc3)[nH]/c(=N\C(=O)c3ccccc3F)n2C)cc1 ; what half-life value has been reported?
1.9

----------
Test: in vivo
Set-up: species or system Sprague-Dawley rats
Details: female, Sprague-Dawley, rat, iv, 1 mg/kg, AUCall
Property: AUC (ng·h/mL)
One number for each entry, in ng·h/mL.

Suppose we examine the molecule COc1ccc(-c2c(Cc3ccccc3)[nH]/c(=N\C(=O)c3ccccc3F)n2C)cc1 ; what AUC value has been reported?
119

----------
Assay: in vivo
Parameters: species or system Sprague-Dawley rats
Conditions: female, Sprague-Dawley, rat, po, 5 mg/kg, Cmax
Property: Cmax (ng/mL)
Answers are plain numbers, in ng/mL.

Suppose we examine the molecule COc1ccc(-c2c(Cc3ccccc3)[nH]/c(=N\C(=O)c3ccccc3F)n2C)cc1 [ZNA] ; what Cmax value has been reported?
11.5
